assayedTarget: Cytochrome P450 2C9 (Homo sapiens)
assayText: blockers of cytochrome P450 2C9 activity – biochemical, luminescence, ADME assay, primary screen (AID 777)
measurementContext: CYP2C9 Supersomes, luciferin-H conversion, at 5 µM, stronger effect = higher value
Among all 96,000 compounds or so, about 19,000 (20%) were called active. Only a sample is shown.
Decision: inhibition compared against 40%; not below it gives TRUE, below it gives FALSE.

These recorded examples may help you get a feel for the data.
- Cc1ccc(C(c2nnnn2CS(=O)(=O)c2ccc(C)cc2)N2CCC(C(N)=O)CC2)cc1 (stereo unspecified): FALSE
- CCC(=O)Nc1ccc(S(=O)(=O)NCC2CCCO2)cc1 (stereo unspecified): FALSE
- CCOC(=O)Cn1c(=O)oc2cc(S(=O)(=O)N(C)Cc3ccco3)ccc21: FALSE
- O=C(CCCn1c(=O)oc2ccccc21)Nc1cccnc1: FALSE

Prompt: Hello, I need to know if COc1ccccc1N1CCN(C(=O)c2ccc(S(=O)(=O)N3CCCCC3)cc2)CC1 has measured inhibition not below 40%. Thanks!
Response: TRUE

Prompt: Hello, I need to know if Cc1cccn2c(=O)c(/C=C(\C#N)S(=O)(=O)c3ccc(Cl)cc3)c(N3CCC(C(N)=O)CC3)nc12 has measured inhibition not below 40%. Thanks!
Response: TRUE

Prompt: Hello, I need to know if C=CCn1c(COc2cccc3cccnc23)nnc1SCC(=O)OC has measured inhibition not below 40%. Thanks!
Response: FALSE

Prompt: Hello, I need to know if O=C(c1ccco1)N1CCN(C(=O)C2CC(c3ccc(Cl)c(Cl)c3)=NO2)CC1 (stereo unspecified) has measured inhibition not below 40%. Thanks!
Response: TRUE

Prompt: Hello, I need to know if O=C(Nc1ccccc1)OCc1cc(-c2ccc(Cl)cc2)on1 has measured inhibition not below 40%. Thanks!
Response: FALSE
